- system name: furin, P09958;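 note: purified furin at 1:10 enzyme:substrate in 50 mM HEPES pH 7.5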
- Sequence (P09958 whole entry): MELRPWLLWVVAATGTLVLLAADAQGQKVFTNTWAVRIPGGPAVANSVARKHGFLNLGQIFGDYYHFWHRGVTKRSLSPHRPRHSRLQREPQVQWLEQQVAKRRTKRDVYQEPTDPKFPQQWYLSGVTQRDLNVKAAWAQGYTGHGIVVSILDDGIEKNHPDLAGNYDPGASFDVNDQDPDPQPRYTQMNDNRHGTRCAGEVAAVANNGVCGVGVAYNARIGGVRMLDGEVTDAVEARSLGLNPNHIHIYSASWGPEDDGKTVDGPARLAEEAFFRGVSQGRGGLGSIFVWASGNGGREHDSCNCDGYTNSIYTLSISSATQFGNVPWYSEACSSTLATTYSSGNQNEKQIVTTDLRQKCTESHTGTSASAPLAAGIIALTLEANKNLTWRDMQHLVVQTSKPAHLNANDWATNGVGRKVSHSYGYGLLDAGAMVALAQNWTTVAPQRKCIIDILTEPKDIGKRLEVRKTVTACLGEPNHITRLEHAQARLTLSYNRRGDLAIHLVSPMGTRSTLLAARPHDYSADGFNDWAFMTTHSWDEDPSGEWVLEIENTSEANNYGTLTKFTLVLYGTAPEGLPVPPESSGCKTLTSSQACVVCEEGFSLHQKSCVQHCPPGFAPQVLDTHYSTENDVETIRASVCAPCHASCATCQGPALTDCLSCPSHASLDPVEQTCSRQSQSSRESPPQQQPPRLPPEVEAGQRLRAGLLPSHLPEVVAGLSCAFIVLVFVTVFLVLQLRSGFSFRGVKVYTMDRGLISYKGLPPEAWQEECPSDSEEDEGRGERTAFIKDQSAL
- method: furin cleavage Z-score vs untreated control; higher = more cleavage, active = 3.5 or more, inactive = 1 or less, 8 variable residues between constant flanks
- condition label: 30 min
Some of the results follow. No count for the full screen is at hand.
In this section, each of the sequences is paired with its reported furin cleavage Z-score.
Hey, just send me the number, nothing else.

Answered cases to consult:
{"construct sequence": "CARVARVAREAGNASASA [FS-1799]", "value reported": 5.82}
{"construct sequence": "CAVVCCSASYAGNASASA [HC2043]", "value reported": 0.0526}
{"construct sequence": "CAVLRRDVITAGNASASA [FS-2855]", "value reported": 0.595}

furin cleavage Z-score in this record for CARHVRSYNHAGNASASA [FS-2026] : 3.01

Form: sequence = CAGRGRGGGGAGNASASA [NG4] ; furin cleavage Z-score = 0.673

GET /value?item= CASEPCSAHLAGNASASA [HC2492] &field=furin cleavage Z-score returns -0.0579

Recorded result, CARVARVRGGAGNASASA [FS-1938] , furin cleavage Z-score: -1.51

For CAPPLVETWKAGNASASA [HC1308] the sequence record lists furin cleavage Z-score as -0.408

furin cleavage Z-score reading for CATCGFADLMAGNASASA [HC224] : -0.0608

# furin cleavage Z-score of CAIASWAIKWAGNASASA [HC515] = -1.7

Record CASPGRHKRTAGNASASA [FS-380] , field furin cleavage Z-score: 6.66

// recorded furin cleavage Z-score for CANNARAARSAGNASASA [FS-1547] : 5.02

CAEVVTKTWVAGNASASA [HC151] yielded furin cleavage Z-score of -0.37

Notebook: CANILRKARSAGNASASA [FS-366] , furin cleavage Z-score read as 7.85

Please fill in: furin cleavage Z-score reported for CAQVLPCSFTAGNASASA [HC497] = 0.347

Recorded result, CAEVRTSTWVAGNASASA [HC2193] , furin cleavage Z-score: 2.14

get_value(item= CAGTPCSGSWAGNASASA [HC1836] , readout=furin cleavage Z-score) returns -1.18
